Values were extracted from patent US20100029617A1.

Molecular target: human orexin-2 receptor (Homo sapiens, UniProt O43614)
Construct: expressed in transfected cells; host or cells: CHO cells (G418 selection)
Sequence (O43614 1-444): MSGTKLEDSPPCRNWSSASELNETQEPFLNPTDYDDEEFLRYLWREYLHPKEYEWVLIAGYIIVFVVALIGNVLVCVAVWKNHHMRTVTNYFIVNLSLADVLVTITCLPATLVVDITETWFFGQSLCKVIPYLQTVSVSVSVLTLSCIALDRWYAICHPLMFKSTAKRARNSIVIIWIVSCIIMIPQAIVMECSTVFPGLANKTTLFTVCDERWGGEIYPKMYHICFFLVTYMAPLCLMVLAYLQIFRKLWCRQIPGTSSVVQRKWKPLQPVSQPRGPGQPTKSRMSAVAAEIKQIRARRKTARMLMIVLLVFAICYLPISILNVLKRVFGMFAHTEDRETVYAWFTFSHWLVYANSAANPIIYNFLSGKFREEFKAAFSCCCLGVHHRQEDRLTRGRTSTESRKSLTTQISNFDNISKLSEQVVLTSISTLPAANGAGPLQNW
Test: Intracellular calcium measurements (FLIPR), orexin receptor antagonistic activity
Type: cell-based
Settings: CHO cells expressing human orexin-2 receptor; agonist 10 nM human orexin-A; fluo-3 calcium signal; read-out: IC50 OX2
measurement_type: IC50 (nM)
Answers are plain numbers, in nM.

The following compounds have reported results that may help.
{"compound_smiles": "CCn1nc(C)c2c1CCCN([C@@H](C(=O)NC)c1ccccc1)[C@H]2CCc1ccc(C)c(C)c1", "tgt": "human orexin-2 receptor (Homo sapiens, UniProt O43614)", "IC50 [nM]": 6}
{"compound_smiles": "CCn1nc(C)c2c1CCCN([C@@H](C(=O)NC)c1ccccc1)[C@H]2CCc1cc(F)c(C(F)(F)F)c(F)c1", "tgt": "human orexin-2 receptor (Homo sapiens, UniProt O43614)", "IC50 [nM]": 12}

We now examine a further compound.
Given the compound CCn1nc(C)c2c1CCCN([C@@H](C(=O)NC)c1ccccc1)[C@H]2CCc1ccc(C(F)(F)F)cc1F and test system human orexin-2 receptor (Homo sapiens, UniProt O43614), the measured IC50 is 18

###

Molecular target: human orexin-1 receptor (Homo sapiens, UniProt O43613)
Sequence (O43613 1-425): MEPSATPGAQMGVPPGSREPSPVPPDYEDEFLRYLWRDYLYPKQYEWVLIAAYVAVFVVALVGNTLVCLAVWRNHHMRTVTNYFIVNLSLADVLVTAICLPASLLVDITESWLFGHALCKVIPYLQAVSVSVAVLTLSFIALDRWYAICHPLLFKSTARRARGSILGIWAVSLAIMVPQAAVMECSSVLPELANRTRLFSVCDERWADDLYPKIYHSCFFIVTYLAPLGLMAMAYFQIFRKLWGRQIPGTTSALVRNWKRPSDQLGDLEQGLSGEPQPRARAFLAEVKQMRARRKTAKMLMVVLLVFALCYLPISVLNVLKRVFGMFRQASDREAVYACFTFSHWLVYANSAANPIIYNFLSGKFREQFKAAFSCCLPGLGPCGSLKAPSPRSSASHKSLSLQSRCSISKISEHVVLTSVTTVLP
Assay: Intracellular calcium measurements (FLIPR), orexin receptor antagonistic activity
Details: CHO cells expressing human orexin-1 receptor; agonist 10 nM human orexin-A; fluo-3 calcium signal; read-out: IC50 OX1
measurement_type: pIC50
Give bare numbers, as −log10 of the molar value.

The following molecules have reported results that may help.
{"compound_smiles": "CCn1nc(C)c2c1CCCN([C@@H](C(=O)NC)c1ccccc1)[C@H]2CCc1ccc(C)c(C)c1", "pIC50": 7.44}
{"compound_smiles": "CCn1nc(C)c2c1CCCN([C@@H](C(=O)NC)c1ccccc1)[C@H]2CCc1ccc(C(F)(F)F)cc1F", "pIC50": 6.86}
{"compound_smiles": "CCn1nc(C)c2c1CCCN([C@@H](C(=O)NC)c1ccccc1)[C@H]2CCc1cc(F)c(C)c(F)c1", "pIC50": 7.59}

We now examine a further molecule.
Quick note, pIC50 for CCn1nc(C)c2c1CCCN([C@@H](C(=O)NC)c1ccccc1)[C@H]2CCc1cc(F)c(C(F)(F)F)c(F)c1 landed at 7.66
